src = patent US20250170248A1

- tgt: SMARCA2 (Homo sapiens, UniProt P51531)
- Sequence (P51531 whole entry): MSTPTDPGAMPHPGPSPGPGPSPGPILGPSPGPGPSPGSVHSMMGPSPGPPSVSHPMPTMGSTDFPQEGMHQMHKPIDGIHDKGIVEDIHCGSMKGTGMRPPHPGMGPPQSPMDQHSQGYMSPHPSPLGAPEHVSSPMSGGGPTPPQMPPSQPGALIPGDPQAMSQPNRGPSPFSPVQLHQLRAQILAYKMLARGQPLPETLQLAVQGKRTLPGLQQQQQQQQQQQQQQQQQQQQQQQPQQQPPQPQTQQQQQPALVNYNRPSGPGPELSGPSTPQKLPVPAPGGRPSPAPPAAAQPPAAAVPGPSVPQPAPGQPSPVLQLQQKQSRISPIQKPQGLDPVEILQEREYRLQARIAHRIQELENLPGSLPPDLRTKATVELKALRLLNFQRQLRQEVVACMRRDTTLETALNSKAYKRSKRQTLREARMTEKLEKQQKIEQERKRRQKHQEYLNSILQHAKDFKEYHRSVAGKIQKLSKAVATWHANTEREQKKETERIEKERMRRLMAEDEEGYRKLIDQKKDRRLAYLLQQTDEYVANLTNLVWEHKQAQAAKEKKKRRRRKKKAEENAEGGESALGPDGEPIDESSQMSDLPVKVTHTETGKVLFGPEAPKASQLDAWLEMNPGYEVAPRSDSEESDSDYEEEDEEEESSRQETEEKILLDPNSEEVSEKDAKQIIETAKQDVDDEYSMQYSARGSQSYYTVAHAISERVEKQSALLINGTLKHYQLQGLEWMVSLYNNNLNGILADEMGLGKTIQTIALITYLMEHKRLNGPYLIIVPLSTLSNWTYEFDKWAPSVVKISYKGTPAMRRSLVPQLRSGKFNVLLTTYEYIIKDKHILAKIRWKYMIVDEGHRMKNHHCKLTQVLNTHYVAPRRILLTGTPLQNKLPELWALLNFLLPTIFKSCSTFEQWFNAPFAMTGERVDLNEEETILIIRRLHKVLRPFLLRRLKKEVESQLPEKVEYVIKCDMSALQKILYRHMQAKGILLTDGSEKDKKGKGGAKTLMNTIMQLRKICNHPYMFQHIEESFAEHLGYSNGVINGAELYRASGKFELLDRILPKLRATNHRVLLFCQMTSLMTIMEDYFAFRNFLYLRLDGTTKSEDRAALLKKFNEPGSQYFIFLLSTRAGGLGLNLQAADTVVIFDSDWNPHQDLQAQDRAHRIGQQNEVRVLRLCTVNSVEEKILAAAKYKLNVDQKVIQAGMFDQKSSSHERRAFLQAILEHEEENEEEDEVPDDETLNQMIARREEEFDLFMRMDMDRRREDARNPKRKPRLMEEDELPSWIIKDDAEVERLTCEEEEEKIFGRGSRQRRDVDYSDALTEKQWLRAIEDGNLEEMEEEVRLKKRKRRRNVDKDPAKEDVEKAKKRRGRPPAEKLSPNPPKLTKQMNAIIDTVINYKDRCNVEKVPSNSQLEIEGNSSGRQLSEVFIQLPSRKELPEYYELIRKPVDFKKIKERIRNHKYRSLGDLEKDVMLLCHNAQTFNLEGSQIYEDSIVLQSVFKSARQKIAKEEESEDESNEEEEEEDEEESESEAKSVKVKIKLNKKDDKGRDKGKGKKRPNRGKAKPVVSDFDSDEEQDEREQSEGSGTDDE
- testDetails: SMARCA2 Western blot degradation in MV4-11 cells
- Type: cell-based
- Design: SMARCA2/SMARCA4 protein degradation selectivity in MV4-11 cells; endogenous in cells; host or cells: MV4-11
- conditionDetails: MV4-11 cells, 24 h; read-out: SMARCA2 MSD MV411 degradation 24 h: Mean external-Abs DC50
Measured DC50 values are reported for all entries that follow.

Worked examples follow.
compound	recordedMetric	observedResult
Cc1ncsc1-c1ccc(CNC(=O)[C@@H]2C[C@@H](O)CN2C(=O)[C@@H](NC(=O)[C@H]2CC3(C2)C[C@H](N2CCC(c4ccnc(N5CCN6c7cc(-c8ccccc8O)nnc7NC[C@@H]6C5)n4)CC2)C3)C(C)(C)C)cc1 (single isomer, unassigned) [I-4]	DC50	1 to 10 nM
C#Cc1ccc([C@H](C)NC(=O)[C@@H]2C[C@@H](O)CN2C(=O)[C@@H](NC(=O)[C@H]2CCC3(CC2)C[C@H](N2CCC(c4cnc(N5CCN6c7cc(-c8ccccc8O)nnc7NC[C@H]6C5)nc4)CC2)C3)C(C)(C)C)cc1 (single isomer, unassigned) [I-57]	DC50	1 to 10 nM
C#Cc1ccc(CNC(=O)[C@@H]2C[C@@H](O)CN2C(=O)[C@@H](NC(=O)N2CC3(CC(N4CCC(N5CC6(CC(N7CCN8c9cc(-c%10ccccc%10O)nnc9NC[C@H]8C7)C6)C5)CC4)C3)C2)C(C)(C)C)cc1	DC50	1 to 10 nM

Turning now to a further compound:
The compound listed as Cc1ncsc1-c1ccc(CNC(=O)[C@@H]2C[C@@H](O)CN2C(=O)C(c2cc(N3CC4(CCC(N5CCC(c6cnc(N7CCc8[nH]c9nnc(-c%10ccccc%10O)cc9c8[C@H]7C)nc6)CC5)CC4)C3)no2)C(C)C)cc1 (single isomer, unassigned) shows DC50 equal to < 1 nM
